Tested on: differentiated 3T3-L1 mouse adipocyte cells
Assay: Adipocyte glucose consumption in differentiated 3T3-L1 mouse adipocyte cells (loss of glucose from medium, colorimetric)
Type: cell-based
Conditions: compound 10 μM, 22 to 24 hours, differentiated 3T3-L1 adipocytes, compound/DMSO, read-out: Glucose consumption (fold change) Mean
ASSAY_READOUT: fold induction at 10 µM

The value of fold induction at 10 µM measured for the compound CCCCC1Cc2c(n(Cc3cccc(C(N)=O)c3)c3c(C(=O)O)cccc23)C1 (stereo not shown) turned out to be 1.14

----------
System: differentiated 3T3-L1 mouse adipocyte cells
Experiment: Adipocyte glucose consumption in differentiated 3T3-L1 mouse adipocyte cells (loss of glucose from medium, colorimetric)
Type: cell-based
Settings: compound 10 μM, 22 to 24 hours, differentiated 3T3-L1 adipocytes, compound/DMSO, read-out: Glucose consumption (fold change) Mean
ASSAY_READOUT: fold induction at 10 µM
// print number alone

The examples below pair each entry with its known result.
CCCCCCC1CCCc2c(n(Cc3ccnc(OC)c3)c3c(C(=O)O)cccc23)C1 (stereo not shown); 1.12
CCCC1CCc2c(n(Cc3cccc(C#N)c3)c3c(C(=O)O)cccc23)C1 (stereo not shown); 1.21
CCCCCCC1CCCc2c(n(Cc3ccc(C)cc3)c3c(C(=O)O)cccc23)C1 (stereo not shown); 1.05
CCC1CCc2c1n(Cc1cccc(C(N)=O)c1)c1c(C(=O)O)cccc21 (stereo not shown); 1.02
CCCCC1CCCc2c(n(Cc3cccc(C(N)=O)c3)c3c(C(=O)NCCO)cccc23)C1 (stereo not shown); 0.98

The value of fold induction at 10 µM measured for the compound CCCCCC1Cc2c(n(Cc3cccc(C#N)c3)c3c(C(=O)O)cccc23)C1 (stereo not shown) turned out to be 1.18

The value of fold induction at 10 µM measured for the compound CCCCCCC1CCCc2c(n(Cc3ccccc3C)c3c(C(=O)O)cccc23)C1 (stereo not shown) turned out to be 1

The value of fold induction at 10 µM measured for the compound CCCCCC1CCCCc2c1c1cccc(C(=O)O)c1n2Cc1cccc(C#N)c1 (stereo not shown) turned out to be 1.2

The value of fold induction at 10 µM measured for the compound CCC1CCc2c(n(Cc3cccc(C(N)=O)c3)c3c(C(=O)O)cccc23)C1 (stereo not shown) turned out to be 1.06

The value of fold induction at 10 µM measured for the compound CCCC1CCCc2c(n(Cc3cccc(C(N)=O)c3)c3c(C(=O)O)cccc23)C1 (stereo not shown) turned out to be 1.06
